System Name: Mitogen-activated protein kinase 9 (Homo sapiens, UniProt P45984)
Sequence (P45984 whole entry): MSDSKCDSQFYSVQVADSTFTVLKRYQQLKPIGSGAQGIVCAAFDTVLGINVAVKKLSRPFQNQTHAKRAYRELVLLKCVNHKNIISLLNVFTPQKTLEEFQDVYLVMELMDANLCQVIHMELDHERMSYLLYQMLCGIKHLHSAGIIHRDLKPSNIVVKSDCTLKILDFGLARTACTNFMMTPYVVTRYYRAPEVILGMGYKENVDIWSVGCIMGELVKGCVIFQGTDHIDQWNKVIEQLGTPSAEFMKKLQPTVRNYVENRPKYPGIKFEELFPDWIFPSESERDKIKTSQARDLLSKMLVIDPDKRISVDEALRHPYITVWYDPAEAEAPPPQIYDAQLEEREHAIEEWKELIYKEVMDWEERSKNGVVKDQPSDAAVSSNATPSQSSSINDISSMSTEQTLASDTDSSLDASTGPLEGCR
Assay Info: Inhibition of JNK2
Class definitions on IC50: zone 1 (below 40 nM), zone 2 (40 nM to below 600 nM), zone 3 (600 nM or more)

Solved entries:
* O=C1NCCc2[nH]c3c(ccc4cnc(/C=C/c5cccc(CCN6CCOCC6)c5)cc43)c21 | zone 2
* O=C1NCc2[nH]c3c(ccc4cnc(-c5cccc(OCCN6CCOCC6)c5)cc43)c21 | zone 1
* O=C1NCc2[nH]c3c(ccc4cnc(/C=C/c5ccc(CN6CCOCC6)cc5)cc43)c21 | zone 1
* COCCOc1cncc(-c2cc3c(ccc4c5c([nH]c43)CCNC5=O)cn2)c1 | zone 3
* O=C1NCCc2[nH]c3c(ccc4cnc(-c5cncc(OCCN6CCOCC6)c5)cc43)c21 | zone 2

Ask: Exercise: read the entry `O=C1NCCCc2[nH]c3c(ccc4cnc(-c5cncc(OCCN6CCOCC6)c5)cc43)c21` and state which class it falls under.
Reply: zone 3

Ask: Exercise: read the entry `O=C1NCc2[nH]c3c(ccc4cnc(-c5ccccc5F)cc43)c21` and state which class it falls under.
Reply: zone 1

Ask: Exercise: read the entry `O=C1NCc2[nH]c3c(ccc4cnc(Nc5cccc(F)c5)cc43)c21` and state which class it falls under.
Reply: zone 1

Ask: Exercise: read the entry `O=C1NCCCc2[nH]c3c(ccc4cnc(/C=C/c5cccc(CCN6CCOCC6)c5)cc43)c21` and state which class it falls under.
Reply: zone 3

Ask: Exercise: read the entry `O=C1NCCc2[nH]c3c(ccc4cnc(/C=C/c5ccc(CN6CCOCC6)cc5)cc43)c21` and state which class it falls under.
Reply: zone 2

Ask: Exercise: read the entry `COc1ccc(-c2cc3c(ccc4c5c([nH]c43)CCC5=O)cn2)cc1F` and state which class it falls under.
Reply: zone 3

Ask: Exercise: read the entry `COCCOc1cncc(-c2cc3c(ccc4c5c([nH]c43)CCCNC5=O)cn2)c1` and state which class it falls under.
Reply: zone 3

Ask: Exercise: read the entry `O=C1NCCc2[nH]c3c(ccc4cnc(-c5cccc(OCCN6CCOCC6)c5)cc43)c21` and state which class it falls under.
Reply: zone 2

Ask: Exercise: read the entry `O=C1NCc2[nH]c3c(ccc4cnc(/C=C/c5ccccc5)cc43)c21` and state which class it falls under.
Reply: zone 1

Ask: Exercise: read the entry `O=C1NCc2[nH]c3c(ccc4cnc(-c5cncc(OCCN6CCOCC6)c5)cc43)c21` and state which class it falls under.
Reply: zone 2

Ask: Exercise: read the entry `O=C1NCCCc2[nH]c3c(ccc4cnc(/C=C/c5ccccc5)cc43)c21` and state which class it falls under.
Reply: zone 2

Ask: Exercise: read the entry `COc1ccc(-c2cc3c(ccc4c5c([nH]c43)CCNC5=O)cn2)cc1F` and state which class it falls under.
Reply: zone 3

Ask: Exercise: read the entry `COCCOc1cncc(-c2cc3c(ccc4c5c([nH]c43)CNC5=O)cn2)c1` and state which class it falls under.
Reply: zone 1

Ask: Exercise: read the entry `O=C1NCCCc2[nH]c3c(ccc4cnc(/C=C/c5ccc(CN6CCOCC6)cc5)cc43)c21` and state which class it falls under.
Reply: zone 3

Ask: Exercise: read the entry `COc1ccc(-c2cc3c(ccc4c5c([nH]c43)CN(C)NC5=O)cn2)cc1` and state which class it falls under.
Reply: zone 2

Ask: Exercise: read the entry `O=C1NCc2[nH]c3c(ccc4cnc(/C=C/c5cccc(CCN6CCOCC6)c5)cc43)c21` and state which class it falls under.
Reply: zone 1
